Entries and their self-splicing fitness (ln)
# method: self-splicing fitness, log relative to wild type (ln ratio); higher = more splicing; Tetrahymena group I intron in knt gene, E. coli kanamycin selection, DiMSum; sequences stand for … in CUCUCU…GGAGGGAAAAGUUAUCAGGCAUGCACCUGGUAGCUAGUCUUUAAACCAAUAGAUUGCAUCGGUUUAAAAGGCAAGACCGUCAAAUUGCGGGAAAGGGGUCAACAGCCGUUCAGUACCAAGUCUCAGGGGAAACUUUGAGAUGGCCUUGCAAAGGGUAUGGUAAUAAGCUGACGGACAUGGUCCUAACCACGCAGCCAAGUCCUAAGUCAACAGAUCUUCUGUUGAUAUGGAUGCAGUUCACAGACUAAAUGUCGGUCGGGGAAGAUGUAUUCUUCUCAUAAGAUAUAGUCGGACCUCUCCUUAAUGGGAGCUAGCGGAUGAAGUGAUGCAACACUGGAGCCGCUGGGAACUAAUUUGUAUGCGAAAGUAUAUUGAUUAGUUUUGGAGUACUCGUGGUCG;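 note: selection with 25 µg/mL kanamycin versus none on LB agar overnight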
# condition-summary: 30 °C
Give a plain numeric answer without units written out.

Here's what some known entries look like.
Could you tell me which self-splicing fitness (ln) is on file for CCUUAGCAAUAUUACGCAUU ? -4.02

And then AUGUAGCAAUAUUACGUAUU , what is it? -3.48

And then CUUCAGCAAUAUUACGCCUU , what is it? -2.35

And then UUUGAGCAAUAUUACGAUCA , what is it? -2.12

And then AGUCAGCAAUAUUACGACGA , what is it? -0.25

And then AAAUAGCAAUAUUACGGUGA , what is it? -1.69

And then AGCGAGCAAUAUUACGGGGU , what is it? -3.54

And then CGAGAGCAAUAUUACGUUCU , what is it? -3.16

Continuing:
Could you tell me which self-splicing fitness (ln) is on file for UUUAAGCAAUAUUACGACUG ? -0.203

And then CGAGAGCAAUAUUACGUACA , what is it? -1.64

And then UCGUAGCAAUAUUACGCGUA , what is it? -1.16
